Biological target: T1, IL-18 receptors on HEK-Blue IL-18 reporter cells (InvivoGen) (UniProt Q13478 19-541; O95256 20-599)
T1 sequence (looked up) 1: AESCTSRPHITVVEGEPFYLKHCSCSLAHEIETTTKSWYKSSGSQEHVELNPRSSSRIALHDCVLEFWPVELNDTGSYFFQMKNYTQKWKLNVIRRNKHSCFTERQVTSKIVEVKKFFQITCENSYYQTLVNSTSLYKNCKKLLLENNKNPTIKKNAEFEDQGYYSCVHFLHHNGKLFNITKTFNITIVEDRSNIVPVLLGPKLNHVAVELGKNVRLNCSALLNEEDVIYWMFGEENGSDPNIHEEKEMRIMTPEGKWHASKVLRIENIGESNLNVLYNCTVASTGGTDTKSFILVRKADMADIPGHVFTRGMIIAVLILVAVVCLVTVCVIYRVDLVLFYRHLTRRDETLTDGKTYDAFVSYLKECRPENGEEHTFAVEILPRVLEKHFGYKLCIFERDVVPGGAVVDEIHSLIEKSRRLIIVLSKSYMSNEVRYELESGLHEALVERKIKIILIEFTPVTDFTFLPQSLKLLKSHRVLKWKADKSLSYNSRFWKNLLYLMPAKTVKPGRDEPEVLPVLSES
T1 sequence (looked up) 2: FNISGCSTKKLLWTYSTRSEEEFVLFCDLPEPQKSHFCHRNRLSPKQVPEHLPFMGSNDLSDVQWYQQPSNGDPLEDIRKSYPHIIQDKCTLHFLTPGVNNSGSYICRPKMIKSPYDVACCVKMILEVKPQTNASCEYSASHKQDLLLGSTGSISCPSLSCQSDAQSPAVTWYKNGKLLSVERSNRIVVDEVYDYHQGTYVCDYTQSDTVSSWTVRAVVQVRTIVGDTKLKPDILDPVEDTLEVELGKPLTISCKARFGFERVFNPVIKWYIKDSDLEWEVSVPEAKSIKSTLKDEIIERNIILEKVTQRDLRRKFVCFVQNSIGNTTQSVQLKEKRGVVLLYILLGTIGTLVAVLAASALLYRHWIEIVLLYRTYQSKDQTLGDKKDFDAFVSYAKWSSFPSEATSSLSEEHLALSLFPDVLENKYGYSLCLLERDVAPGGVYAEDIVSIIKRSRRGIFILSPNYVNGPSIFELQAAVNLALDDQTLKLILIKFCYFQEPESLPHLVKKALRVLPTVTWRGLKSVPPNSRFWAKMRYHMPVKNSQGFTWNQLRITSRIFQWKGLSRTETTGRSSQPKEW
Test: cell-based or functional assay
parameter: HEK-Blue Ec50 (pM), -IL-18BP

# binder, parameter, obsValue
measured = [
    ("IL-18 variant G3R, N91S, K53A (ligand) YFRKLESKLSVIRNLNDQVLFIDQGNRPLFEDMTDSDMRDNAPRTIFIISMYADSQPRGMAVTISVKSEKISTLSSENKIISFKEMNPPDSIKDTKSDIIFFQRSVPGHDNKMQFESSSYEGYFLASEKERDLFKLILKKEDELGDRSIMFTVQNED", "HEK-Blue Ec50 (pM), -IL-18BP", "0.05 pM"),
    ("IL-18 variant G3H, N91V, K53S (ligand, also called G3H/K53S/N91V) YFHKLESKLSVIRNLNDQVLFIDQGNRPLFEDMTDSDMRDNAPRTIFIISMYSDSQPRGMAVTISVKSEKISTLSSENKIISFKEMNPPDVIKDTKSDIIFFQRSVPGHDNKMQFESSSYEGYFLASEKERDLFKLILKKEDELGDRSIMFTVQNED", "HEK-Blue Ec50 (pM), -IL-18BP", "0.94 pM"),
    ("IL-18 variant G3R, N91W, K53A (ligand, also called G3R/K53A/N91W) YFRKLESKLSVIRNLNDQVLFIDQGNRPLFEDMTDSDMRDNAPRTIFIISMYADSQPRGMAVTISVKSEKISTLSSENKIISFKEMNPPDWIKDTKSDIIFFQRSVPGHDNKMQFESSSYEGYFLASEKERDLFKLILKKEDELGDRSIMFTVQNED", "HEK-Blue Ec50 (pM), -IL-18BP", "0.04 pM"),
    ("IL-18 variant G3K, N91I, K53S (ligand) YFKKLESKLSVIRNLNDQVLFIDQGNRPLFEDMTDSDMRDNAPRTIFIISMYSDSQPRGMAVTISVKSEKISTLSSENKIISFKEMNPPDIIKDTKSDIIFFQRSVPGHDNKMQFESSSYEGYFLASEKERDLFKLILKKEDELGDRSIMFTVQNED", "HEK-Blue Ec50 (pM), -IL-18BP", "0.2 pM"),
    ("IL-18 variant G3A, N91L, K53S (ligand) YFAKLESKLSVIRNLNDQVLFIDQGNRPLFEDMTDSDMRDNAPRTIFIISMYSDSQPRGMAVTISVKSEKISTLSSENKIISFKEMNPPDLIKDTKSDIIFFQRSVPGHDNKMQFESSSYEGYFLASEKERDLFKLILKKEDELGDRSIMFTVQNED", "HEK-Blue Ec50 (pM), -IL-18BP", "0.71 pM"),
    ("IL-18 variant G3R, N91A, K53S (ligand, also called G3R/K53S/N91A) YFRKLESKLSVIRNLNDQVLFIDQGNRPLFEDMTDSDMRDNAPRTIFIISMYSDSQPRGMAVTISVKSEKISTLSSENKIISFKEMNPPDAIKDTKSDIIFFQRSVPGHDNKMQFESSSYEGYFLASEKERDLFKLILKKEDELGDRSIMFTVQNED", "HEK-Blue Ec50 (pM), -IL-18BP", "0.25 pM"),
    ("IL-18 variant G3R, N91M, K53A (ligand, also called G3R/K53A/N91M) YFRKLESKLSVIRNLNDQVLFIDQGNRPLFEDMTDSDMRDNAPRTIFIISMYADSQPRGMAVTISVKSEKISTLSSENKIISFKEMNPPDMIKDTKSDIIFFQRSVPGHDNKMQFESSSYEGYFLASEKERDLFKLILKKEDELGDRSIMFTVQNED", "HEK-Blue Ec50 (pM), -IL-18BP", "0.06 pM"),
    ("IL-18 variant G3R, N91M, K53S (ligand, also called G3R/K53S/N91M) YFRKLESKLSVIRNLNDQVLFIDQGNRPLFEDMTDSDMRDNAPRTIFIISMYSDSQPRGMAVTISVKSEKISTLSSENKIISFKEMNPPDMIKDTKSDIIFFQRSVPGHDNKMQFESSSYEGYFLASEKERDLFKLILKKEDELGDRSIMFTVQNED", "HEK-Blue Ec50 (pM), -IL-18BP", "0.12 pM"),
]

Now for another entry.
State the recorded HEK-Blue Ec50 (pM), -IL-18BP for this entry: IL-18 variant G3F, N91E, K53S (ligand, also called G3F/K53S/N91E) YFFKLESKLSVIRNLNDQVLFIDQGNRPLFEDMTDSDMRDNAPRTIFIISMYSDSQPRGMAVTISVKSEKISTLSSENKIISFKEMNPPDEIKDTKSDIIFFQRSVPGHDNKMQFESSSYEGYFLASEKERDLFKLILKKEDELGDRSIMFTVQNED
2.55 pM
